assay_summary: HepG2 liver cancer cell viability effects, profiling panel, resazurin fluorescence, 24 h, PK04 Diversity Set (AID 1172); note: test concentration not given here
conditions_used: higher = more signal
# if value of z-score reaches 0.4, tag true; if it stays below, tag false

Take a look at these entries with their results.
# compound, qualitative_label
data = [
    ("CC1CC/C=C\\[C@H]2OC34C=CCN(Cn5nnc6ccccc65)C(=O)[C@H]3N(C(CO)C(C)C)C(=O)[C@@H]4C2C(=O)O1 (some centres not stated)", "true"),
    ("C=CCN(Cc1ccccc1)C(=O)C(c1cccs1)N(CCOCCO)C(=O)/C=C\\C(=O)O (configuration not stated)", "false"),
]

Challenge: Identify whether the reported z-score of the following compound is 0.4 or greater: COCCCNC(=O)[C@@]1(Cc2ccccc2)N=C(c2ccc(OCCCO)cc2)O[C@H]1c1ccccc1
Response given: true

Challenge: Identify whether the reported z-score of the following compound is 0.4 or greater: COc1ccc(CCNC(=O)[C@@]2(C)c3ccccc3C(=O)N(Cc3cc(F)cc(C(F)(F)F)c3)[C@H]2c2ccc(CO)cc2)cc1
Response given: false

Challenge: Identify whether the reported z-score of the following compound is 0.4 or greater: O=C(O)[C@@]1(CCS(=O)(=O)c2ccccc2)COC(c2ccc(OCCCO)cc2)=N1
Response given: true

Challenge: Identify whether the reported z-score of the following compound is 0.4 or greater: COc1cc2c(cc1OC)CN(C(=O)[C@H]1[C@@H]3C(=O)O[C@@H](c4ccccc4)[C@@H](c4ccccc4)N3[C@@H](c3ccc(O)cc3)[C@]13C(=O)Nc1ccc(C#CC4=CCCCC4)cc13)CC2
Response given: false

Challenge: Identify whether the reported z-score of the following compound is 0.4 or greater: C=CCC(OC(C)=O)[C@@H]1[C@@H](N(Cc2cccc3ccccc23)C(=O)c2ccc(-c3ccccc3)cc2)c2cc(OCCCO)ccc2N1C(=O)Cc1ccc(OC)cc1 (some centres not stated)
Response given: true

Ref: PubChem BioAssay
